Just for reference, ChEMBL document CHEMBL1142906 is where these values come from.

MEASURED_ON: UniProtKB P32245
Sequence (P32245 whole entry): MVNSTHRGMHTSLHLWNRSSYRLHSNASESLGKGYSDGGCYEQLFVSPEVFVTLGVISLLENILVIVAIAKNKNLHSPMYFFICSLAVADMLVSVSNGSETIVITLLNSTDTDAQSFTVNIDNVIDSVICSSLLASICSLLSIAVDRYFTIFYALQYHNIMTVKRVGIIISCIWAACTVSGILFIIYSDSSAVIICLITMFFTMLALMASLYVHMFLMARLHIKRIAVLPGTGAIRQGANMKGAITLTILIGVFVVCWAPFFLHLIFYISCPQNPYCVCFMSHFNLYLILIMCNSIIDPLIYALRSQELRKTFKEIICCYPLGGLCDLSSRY
TEST_PROTOCOL: Displacement of [125I]Nle4-D-Phe7-alpha-MSH from human MC4 receptor expressed in COS1 cells
pIC50: −log10 of the molar value.
TEST_READOUT: pIC50

molecule="CC(C)N1CCN(C(CN2CCN(CCCc3ccccc3-c3ccccc3)CC2)c2ccc(F)cc2)CC1 (racemic)" test_readout=pIC50 readout_number=7.95

a = CN1CCN(C(CN2CCN(CCc3cccc4ccccc34)CC2)c2ccc(F)cc2)CC1 (racemic)
b = CN1CCN(C(CN2CCN(CCc3ccc4ccccc4c3)CC2)c2ccc(F)cc2)CC1 (racemic)
c = Cc1cccc(-c2ccccc2)c1CCCN1CCN(CC(c2ccc(F)cc2)N2CCN(C(C)C)CC2)CC1 (racemic)
Ordering: ascending pIC50. Output spec: labels arranged per the requested ranking.
b, a, c
